Recorded EC50 by entry
Target: mouse RORγ (Mus musculus, UniProt P51450)
Construct: mouse RORγ, from Ile251 to Lys516; expressed in transfected cells; host or cells: CHO cells (Chinese hamster ovary), transient co-transfection with pG5-Luc
Sequence (P51450 251-516): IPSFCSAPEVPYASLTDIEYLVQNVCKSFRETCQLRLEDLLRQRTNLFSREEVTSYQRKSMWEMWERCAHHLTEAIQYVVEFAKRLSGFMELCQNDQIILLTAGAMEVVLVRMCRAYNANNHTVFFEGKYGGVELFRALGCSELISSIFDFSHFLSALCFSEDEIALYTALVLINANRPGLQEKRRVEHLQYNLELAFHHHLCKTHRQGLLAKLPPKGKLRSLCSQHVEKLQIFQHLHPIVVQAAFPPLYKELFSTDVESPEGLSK
Assay: In vitro assay of inhibitory effect against RORγ transcriptional activity (GAL4-mRORγ LBD luciferase reporter gene assay in CHO cells)
Assay type: cell-based
Conditions: GAL4-mRORγ LBD / pG5-Luc in CHO cells, 2 days incubation
Give just the numeric value; nM need not be written.

Examples with answers:
Q: Entry under review: CC(C)C1=CN(CCC(=O)O)C(=O)N[C@@]1(C)c1cc(F)c(OCc2ccccc2)c(Cl)c1 [Example 161] . Reported EC50?
A: 47

Q: Same lookup for CC(C)C1=CN(CCCC(=O)O)C(=O)N[C@@]1(C)c1ccc(CCC(C)(C)C)c(Cl)c1 [Example 15] , please.
A: 12

Q: Same lookup for COCCN1C=C(C(C)(C)CCC(=O)O)C(C)(c2ccc(CCC(C)(C)C)c(Cl)c2)NC1=O (single isomer, unassigned) [Example 160] , please.
A: 40

Q: Same lookup for CC(C)C1=CN(C23CC(C(=O)O)(C2)C3)C(=O)N[C@@]1(C)c1ccc(CCC(C)(C)C)c(Cl)c1 [Example 186] , please.
A: 116

Q: Same lookup for CCOC(=O)c1ccc(C2(C)NC(=O)N(CCC(=O)O)C=C2C(C)C)cc1Cl (racemic) [Example 114] , please.
A: 11000

Q: Same lookup for CC(C)C1=CN([C@H]2CC[C@H](C(=O)O)CC2)C(=O)N[C@@]1(C)c1ccc(CCC(C)(C)C)c(Cl)c1 [Example 79] , please.
A: 18

Q: Same lookup for CCCCc1ccc(C2(C)NC(=O)N(CCCC(=O)O)C=C2C(C)C)cc1Cl (racemic) [Example 28] , please.
A: 82

Q: Same lookup for CC(C)C1=CN(CC(C)(C)CC(=O)O)C(=O)N[C@@]1(C)c1ccc(CCC(C)(C)C)c(Cl)c1 [Example 36] , please.
A: 24

Q: Same lookup for CC(C)C1=CN(CCc2ccccc2C(=O)O)C(=O)N[C@@]1(C)c1ccc(CCC(C)(C)C)c(Cl)c1 [Example 83] , please.
A: 43

Q: Same lookup for CC(C)(C)CCc1ccc(C2(C)NC(=O)N(CCC(=O)O)C=C2C2(C)CC2)cc1Cl (single isomer, unassigned) [Example 171] , please.
A: 14

Shifting focus to the compound that follows.
Q: Entry under review: CC(C)C1=CN(CCC(=O)O)C(=O)N[C@@]1(C)c1ccc(C2CC3(CCC3)C2)c(Cl)c1 [Example 173] . Reported EC50?
A: 11

* * *

target: mouse RORγ (Mus musculus, UniProt P51450); construct: mouse RORγ, from Ile251 to Lys516; expressed in transfected cells; host or cells: CHO cells (Chinese hamster ovary), transient co-transfection with pG5-Luc; assay: In vitro assay of inhibitory effect against RORγ transcriptional activity (GAL4-mRORγ LBD luciferase reporter gene assay in CHO cells); assay type: cell-based; conditions: GAL4-mRORγ LBD / pG5-Luc in CHO cells, 2 days incubation
Recorded EC50 by entry
Give just the numeric value; nM need not be written.

Q: Entry under review: CC(C)C1=CN(CCC(=O)O)C(=O)N[C@@]1(C)c1ccc(CCC2CCCC2)c(Cl)c1 [Example 120] . Reported EC50?
A: 14

Continuing:
Q: Entry under review: CC(C)C1=CN([C@H]2CC(=O)N(CC(=O)O)C2)C(=O)N[C@@]1(C)c1ccc(CCC(C)(C)C)c(Cl)c1 [Example 162] . Reported EC50?
A: 275

Q: Same lookup for CC1=CN(CCCC(=O)O)C(=O)N[C@]1(C)c1ccc(CCC(C)(C)C)c(Cl)c1 [Example 60] , please.
A: 12400

Q: Same lookup for CCC(C)C1=CN(CCCC(=O)O)C(=O)NC1(C)c1ccc(CCC(C)(C)C)c(Cl)c1 (single isomer, unassigned) [Example 33] , please.
A: 617

Q: Same lookup for CC(C)C1=CN(CCC(=O)O)C(=O)N[C@@]1(C)c1cc(F)c(OCCC(C)(C)C)c(Cl)c1 [Example 165] , please.
A: 17

Q: Same lookup for CC(C)C1=CN(CCC(=O)O)C(=O)NC1(C)c1ccc(C2CCCC(C)(C)C2)c(Cl)c1 (single isomer, unassigned) [Example 167] , please.
A: 49

Q: Same lookup for CC(C)C1=CN(CCC(=O)O)C(=O)N[C@@]1(C)c1ccc(OCCC(F)(F)F)c(Cl)c1 [Example 140] , please.
A: 139

Q: Same lookup for CC(C)C1=CN(CCC2(C(=O)O)CC2)C(=O)N[C@]1(C)c1ccc(CCC(C)(C)C)c(Cl)c1 [Example 71] , please.
A: 758

Q: Same lookup for CC(C)(C)CCc1ccc([C@]2(C)NC(=O)N(CCCC(=O)O)C=C2C2CCCCC2)cc1Cl [Example 32] , please.
A: 46

Q: Same lookup for CC(C)C1=CN(CC(=O)O)C(=O)N[C@@]1(C)c1ccc(CCC(C)(C)C)c(Cl)c1 [Example 94] , please.
A: 142

Q: Same lookup for CC(C)C1=CN(C23CC(C(=O)O)(C2)C3)C(=O)N[C@@]1(C)c1ccc(CCC(C)(C)C)c(Cl)c1 [Example 77] , please.
A: 24

Q: Same lookup for CC(C)C1=CN(CCCCC(=O)O)C(=O)N[C@]1(C)c1ccc(CCC(C)(C)C)c(Cl)c1 [Example 47] , please.
A: 764

Q: Same lookup for CC(C)C1=CN(CCOCC(=O)O)C(=O)NC1(C)c1ccc(CCC(C)(C)C)c(Cl)c1 (single isomer, unassigned) [Example 40] , please.
A: 198

Q: Same lookup for CC(C)C1=CN(CCCC(C)(C)C(=O)O)C(=O)N[C@]1(C)c1ccc(CCC(C)(C)C)c(Cl)c1 [Example 74] , please.
A: 1100

* * *

Biological target: mouse RORγ (Mus musculus)
Construct: mouse RORγ, from Ile251 to Lys516; expressed in transfected cells; host or cells: CHO cells (Chinese hamster ovary), transient co-transfection with pG5-Luc
Sequence (P51450 251-516): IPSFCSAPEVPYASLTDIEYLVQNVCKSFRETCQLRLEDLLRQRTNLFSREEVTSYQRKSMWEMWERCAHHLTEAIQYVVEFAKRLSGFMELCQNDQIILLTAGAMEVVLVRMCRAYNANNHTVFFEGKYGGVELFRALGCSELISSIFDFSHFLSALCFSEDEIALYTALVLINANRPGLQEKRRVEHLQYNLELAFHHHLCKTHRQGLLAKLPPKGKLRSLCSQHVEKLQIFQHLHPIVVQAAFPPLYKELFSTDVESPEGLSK
Experiment: In vitro assay of inhibitory effect against RORγ transcriptional activity (GAL4-mRORγ LBD luciferase reporter gene assay in CHO cells)
Type: cell-based
Settings: GAL4-mRORγ LBD / pG5-Luc in CHO cells, 2 days incubation
Recorded pEC50 by entry
# pEC50: negative log10 of molar concentration; output just the value

Q: Entry under review: CC(C)C1=CN(CC[C@@H](O)C(=O)O)C(=O)N[C@@]1(C)c1ccc(CCC(C)(C)C)c(Cl)c1 . Reported pEC50?
A: 7.80

Continuing:
Q: Entry under review: CC(C)CC1=CN(CCCC(=O)O)C(=O)N[C@@]1(C)c1ccc(CCC(C)(C)C)c(Cl)c1 . Reported pEC50?
A: 7.82

Q: Same lookup for CC(C)C1=CN(CCC(=O)O)C(=O)N[C@@]1(C)c1ccc(CCC2CCCCC2)c(Cl)c1 , please.
A: 7.57

Q: Same lookup for CC(C)N1C=C(C(C)(C)CCC(=O)O)C(C)(c2ccc(CCC(C)(C)C)c(Cl)c2)NC1=O (single isomer, unassigned) , please.
A: 7.74

Q: Same lookup for CC(C)C1=CN(CCC(=O)O)C(=O)N[C@@]1(C)c1cc(F)c(CCC(C)(C)C)c(Cl)c1 , please.
A: 7.92

Q: Same lookup for CCCCc1ccc(C2(C)NC(=O)N(CCCC(=O)O)C=C2C(C)C)cc1OCc1ccccc1 (racemic) , please.
A: 6.43

Q: Same lookup for CCCCc1ccc(C2(C)NC(=O)N(CCCC(=O)O)C=C2C(C)C)cc1F (racemic) , please.
A: 6.88
